- assay text: Chemical stability assessed as half life of hydrolysis
- Type: physicochemical
readout kind: t1/2 (h)

[1] CC(C)(C)OC(=O)NCCCCCC(=O)Oc1cc(-c2oc3cc(O)cc(O)c3c(=O)c2O)ccc1O
[2] CC(C)(C)OC(=O)NCCCC(=O)Oc1cc(-c2oc3cc(O)cc(O)c3c(=O)c2O)ccc1O
// task: argmin of t1/2 over [ 1 , 2 ] Your choice should be expressed through its label.
2
(2: 2.08 h, 1: 3.67 h)

---

- assay text: Solubility in Hanks balanced salt solution at 1 mg after 24 hrs
- Assay type: physicochemical
readout kind: solubility at 24 h (µM)

Solved cases below.
>  <query smiles>
O=c1c(O)c(-c2ccc(O)c(O)c2)oc2cc(O)cc(O)c12

>  <solubility at 24 h (µM)>
2.3

$$$$
>  <query smiles>
CC(=O)Oc1cc(OC(C)=O)c2c(=O)c(OC(C)=O)c(-c3ccc(OC(C)=O)c(OC(=O)[C@@H](C)NC(=O)OC(C)(C)C)c3)oc2c1

>  <solubility at 24 h (µM)>
12

$$$$
>  <query smiles>
CC(=O)Oc1cc(OC(C)=O)c2c(=O)c(OC(C)=O)c(-c3ccc(OC(C)=O)c(OC(=O)c4ccc(NC(=O)OC(C)(C)C)cc4)c3)oc2c1

>  <solubility at 24 h (µM)>
0.4

$$$$

[1] CC(=O)Oc1cc(OC(C)=O)c2c(=O)c(OC(C)=O)c(-c3ccc(OC(C)=O)c(OC(=O)[C@H]4CC[C@@H](NC(=O)OC(C)(C)C)CC4)c3)oc2c1
[2] Nc1ccc(C(=O)Oc2cc(-c3oc4cc(O)cc(O)c4c(=O)c3O)ccc2O)cc1
Form field 'greater solubility at 24 h' accepts 1 or 2 ; which applies? Could you answer with the label of the item you picked?
2

---

- assay text: Solubility in Hanks balanced salt solution at 1 mg after 24 hrs
- Format: physicochemical
readout kind: solubility at 24 h (µM)

[a] CC(=O)Oc1cc(OC(C)=O)c2c(=O)c(OC(C)=O)c(-c3ccc(OC(C)=O)c(OC(=O)CCCNC(=O)OC(C)(C)C)c3)oc2c1
[b] CC(=O)Oc1cc(OC(C)=O)c2c(=O)c(OC(C)=O)c(-c3ccc(OC(C)=O)c(OC(=O)CCCCCNC(=O)OC(C)(C)C)c3)oc2c1
[c] CC(=O)Oc1cc(OC(C)=O)c2c(=O)c(OC(C)=O)c(-c3ccc(OC(C)=O)c(OC(C)=O)c3)oc2c1
[d] CC(C)(C)OC(=O)Nc1ccc(C(=O)Oc2cc(-c3oc4cc(O)cc(O)c4c(=O)c3O)ccc2O)cc1
Order the entries above by descending solubility at 24 h. The labels, placed in the requested order, form the answer.
b, a, c, d
(b: 3.9 µM, a: 2.5 µM, c: 1.1 µM, d: 0.4 µM)
